- tested target: human IDO1 (Homo sapiens, UniProt P14902)
- Construct: expressed in transfected cells
- Sequence (P14902 whole entry): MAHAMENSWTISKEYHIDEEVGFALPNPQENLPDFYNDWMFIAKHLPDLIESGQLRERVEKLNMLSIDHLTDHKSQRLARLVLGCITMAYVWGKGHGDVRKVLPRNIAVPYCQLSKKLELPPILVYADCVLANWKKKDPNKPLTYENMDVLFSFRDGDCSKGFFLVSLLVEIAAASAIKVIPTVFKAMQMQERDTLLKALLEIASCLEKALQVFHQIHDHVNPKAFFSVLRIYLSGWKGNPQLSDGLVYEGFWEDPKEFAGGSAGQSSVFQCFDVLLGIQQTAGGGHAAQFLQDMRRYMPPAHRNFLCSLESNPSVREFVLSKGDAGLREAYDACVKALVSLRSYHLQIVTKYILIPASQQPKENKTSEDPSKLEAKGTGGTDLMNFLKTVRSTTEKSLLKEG
- protocol description: IDO inhibition assay in HEK293 cells stably expressing human IDO1 (kynurenine, Ehrlich reagent, absorbance 490 nm)
- Format: cell-based
- experimental context: 20 hours incubation, read-out: IDO1 HEK Human IC50

molecule | IC50 / nM
CCC(Nc1nnc(-c2ccc(OC)cc2)o1)C1CCC(c2ccnc3ccc(C(F)(F)F)cc23)CC1 (single isomer, unassigned) | 6
Cc1ccc(-c2nnc([C@H](C)[C@H]3CC[C@@H](c4ccnc5ccc(F)cc54)CC3)[nH]2)cc1F | 747
C[C@@H](c1nnc(-c2ccc(F)cc2)[nH]1)[C@H]1CC[C@@H](c2ccnc3ccc(F)cc32)CC1 | 42.3

----------
- tested target: human IDO1 (Homo sapiens, UniProt P14902)
- Construct: expressed in transfected cells
- protocol description: IDO inhibition assay in HEK293 cells stably expressing human IDO1 (kynurenine, Ehrlich reagent, absorbance 490 nm)
- Assay type: cell-based
- experimental context: 20 hours incubation, read-out: IDO1 HEK Human IC50
pIC50: −log10 of the molar value.
Readings of pIC50 for the listed compounds
assay endpoint: pIC50

compound | measured value
CCC(Nc1nnc(-c2ccc(OC)cc2)o1)[C@H]1CC[C@@H](c2ccnc3ccc(F)cc32)CC1 (single isomer, unassigned) [Example 49-1] | 9.05
COc1ccc(Nc2nnc([C@H](C)[C@H]3CC[C@@H](c4ccnc5ccc(F)cc54)CC3)[nH]2)cc1 [Example 20] | 6.87
CCC(Nc1nnc(-c2ccc(OC)cc2)o1)[C@H]1CC[C@@H](c2ccnc(F)c2C)CC1 (single isomer, unassigned) [Example 63-2] | 6.85
C[C@@H](c1nnc(Nc2ccc(F)cc2)[nH]1)[C@H]1CC[C@@H](c2ccnc3ccc(F)cc32)CC1 [Example 21] | 7.17
C[C@@H](c1ncc(-c2ccc(Cl)cc2)[nH]1)[C@H]1CC[C@@H](c2ccnc3ccc(F)cc32)CC1 [Example 44] | 7.91
CCC(c1nnc(-c2ccc(OC(C)C)cc2)[nH]1)C1CCC(c2ccnc3ccc(F)cc23)CC1 (stereo not drawn) [Example 53] | 6.84
C[C@@H](c1ncc(-c2ccc(C#N)cc2)o1)[C@H]1CC[C@@H](c2ccnc3ccc(F)cc32)CC1 [Example 46] | 6.41
C[C@@H](c1nnc(-c2ccc(Cl)cc2)[nH]1)[C@H]1CC[C@@H](c2ccnc3ccc(F)cc32)CC1 [Example 1] | 7.32
C[C@@H](c1nnc(-c2ccc(Cl)cc2)o1)[C@H]1CC[C@@H](c2ccnc3ccc(F)cc32)CC1 [Example 4] | 6.78

----------
- tested target: UniProt P14902
- protocol description: IDO inhibition assay in HEK293 cells stably expressing human IDO1 (kynurenine, Ehrlich reagent, absorbance 490 nm)
- experimental context: 20 hours incubation, read-out: IDO1 HEK Human IC50
Rule: IC50 below 9 nM gives condition met. Equal to or above 9 nM gives condition not met.

compound | assigned category
C[C@@H](Nc1nnc(-c2ccc(C#N)cc2)o1)[C@H]1CC[C@@H](c2ccnc3ccc(F)cc32)CC1 [Example 29] | condition not met
C[C@@H](Nc1nnc(-c2ccc(Cl)cc2)s1)[C@H]1CC[C@@H](c2ccnc3ccc(F)cc32)CC1 [Example 24] | condition met
CCC(Nc1nnc(-c2ccc(OC)cc2)o1)[C@H]1CC[C@@H](c2ccnc3ccc(F)cc32)CC1 (mixture of isomers) [Example 48] | condition met
C[C@@H](c1nnc(-c2ccc(F)c(Cl)c2)o1)[C@H]1CC[C@@H](c2ccnc3ccc(F)cc32)CC1 [Example 17] | condition not met
